Where do the numbers come from? From the supplement of paper PMC9732359.

test: protein stability index of a GFP-peptide fusion (yeast GPS) (PSI 1-4); higher = more stable; sorted into four equal gates, so the index is relative within each strain; settings: san1∆
# maps each entry to its protein stability index

{"monomer.sequence": "ILSTTLDPTDDEGHVLK [SIN4]", "protein stability index": 3.01}
{"monomer.sequence": "KNVLANSIWGSSLRKNA [ITC1]", "protein stability index": 1.82}
{"monomer.sequence": "KPAFSFGATTNDDKKTE [YJL041W/NSP1]", "protein stability index": 3.01}
{"monomer.sequence": "NNSAPNNTNNANSSITP [YJL041W/NSP1]", "protein stability index": 2.73}
{"monomer.sequence": "TSRVTGILLLDSLIQLA [YJL039C/NUP192]", "protein stability index": 1.59}
{"monomer.sequence": "VNEIMYKCTAAMEKYLL [MTW1]", "protein stability index": 2.4}
{"monomer.sequence": "TTYTYQQPNPLQDLISV [ROX3]", "protein stability index": 1.7}
{"monomer.sequence": "AEKSFKPPKNKYKVVRR [SEC65]", "protein stability index": 3.21}
{"monomer.sequence": "ENDIIKLSDSKTSNIES [BRR2]", "protein stability index": 2.77}
{"monomer.sequence": "VKDELMFSPLVDSGSND [RPO21]", "protein stability index": 3.22}
{"monomer.sequence": "LTLQEDYIKDEQRHLKR [RPT3]", "protein stability index": 3.14}
{"monomer.sequence": "LLFWTDPRNLVNQTGST [YCG1]", "protein stability index": 2.83}
{"monomer.sequence": "PSSMATLLKNLRKKLNF [YJR042W/NUP85]", "protein stability index": 2.91}
{"monomer.sequence": "KLLDDNPTEFDWPTYVD [SRB8]", "protein stability index": 3.01}
{"monomer.sequence": "MYILGMCVSKGNASLKY [YCG1]", "protein stability index": 1.58}
{"monomer.sequence": "SGVMDKSVLGDGKKHSV [RPO31]", "protein stability index": 3.31}
{"monomer.sequence": "NKYQYSLKQYAGNLITT [SRP68]", "protein stability index": 1.7}
{"monomer.sequence": "IRDLEKLYDKTENDIKA [RPT4]", "protein stability index": 1.91}
{"monomer.sequence": "LINIDTSIANAFRRIMI [RPC40]", "protein stability index": 3.14}
{"monomer.sequence": "WSFEEVEVKDASLVDYV [RPS5]", "protein stability index": 1.22}
{"monomer.sequence": "KQINHQGEEEELIALNL [RPB4]", "protein stability index": 3.2}
{"monomer.sequence": "RALQENGIIMNGTLIGC [YMR153W/NUP53]", "protein stability index": 2.93}
{"monomer.sequence": "KSKSSLDGKFSLFHTAV [RPN2]", "protein stability index": 2.86}
{"monomer.sequence": "YISKIGEKIDSNKPIFL [SWI1]", "protein stability index": 3.01}
{"monomer.sequence": "FISSNDAFNMLSLTTVP [SNF6]", "protein stability index": 2.31}
{"monomer.sequence": "YQVDEDVKSSLSKVFSD [YJL039C/NUP192]", "protein stability index": 3.33}
{"monomer.sequence": "SKSAFSFGTANTNGTNA [YOR098C/NUP1]", "protein stability index": 2.77}
{"monomer.sequence": "KYISAELYAQLRENGLV [SNU114]", "protein stability index": 3.21}
{"monomer.sequence": "DLISKKTKTSLLPTIKR [RPR2]", "protein stability index": 2.58}
{"monomer.sequence": "LNISPFTFGLTVVQVYD [RPP0]", "protein stability index": 1.55}

----------
experiment: protein stability index of a GFP-peptide fusion (yeast GPS) (PSI 1-4); higher = more stable; sorted into four equal gates, so the index is relative within each strain; settings: ubr1∆

{"monomer.sequence": "RSDLQSKIQEIESIRSC [YIL149C/MLP2]", "protein stability index": 2.52}
{"monomer.sequence": "IPIAIVLKACGILSDLE [RET1]", "protein stability index": 2.02}
{"monomer.sequence": "IDEDKLYPSFKPIYKDT [SSN2]", "protein stability index": 3.17}
{"monomer.sequence": "PSYYYYVDPETTYTYQQ [ROX3]", "protein stability index": 3.16}
{"monomer.sequence": "RVHRRNNRWAENNYKKR [RPS23A]", "protein stability index": 3.54}
{"monomer.sequence": "FKLDKDTSNWELSDSWR [YGL100W/SEH1]", "protein stability index": 3.31}
{"monomer.sequence": "SLNLTDDVISNAGTNDN [MCD1]", "protein stability index": 2.96}

----------
assay: protein stability index of a GFP-peptide fusion (yeast GPS) (PSI 1-4); higher = more stable; sorted into four equal gates, so the index is relative within each strain; conditions: ubr1∆
The entries below are paired with their reported protein stability index.

{"monomer.sequence": "NMFELAQQLVGVYKRDN [SMC4]", "protein stability index": 1.37}
{"monomer.sequence": "VLNCLRTMYFILDGQDV [YJR042W/NUP85]", "protein stability index": 1.34}
{"monomer.sequence": "NVYVGMTDMQIQWYKSL [ISW2]", "protein stability index": 3.14}
{"monomer.sequence": "YENIPIYATFLNESDCL [YDL116W/NUP84]", "protein stability index": 2.62}
{"monomer.sequence": "PIAQPATDVEARAVQDN [RPL13A]", "protein stability index": 1.69}
{"monomer.sequence": "EAINGFKDETISKKIIG [SIR3]", "protein stability index": 3.09}
{"monomer.sequence": "TIFSVMVEWLESRSFSP [PRP8]", "protein stability index": 1.88}

----------
# protein stability index values compiled below
assay: protein stability index of a GFP-peptide fusion (yeast GPS) (PSI 1-4); higher = more stable; sorted into four equal gates, so the index is relative within each strain; conditions: doa10∆
endpoint: protein stability index

{"monomer.sequence": "YASKAVPHYNRLDSYKV [RPL25]", "measured.result": 2.11}
{"monomer.sequence": "VGEEETSQKMKKMVYVL [SRP54]", "measured.result": 3.31}
{"monomer.sequence": "VDLTSSNFADSADYEIL [YDL116W/NUP84]", "measured.result": 2.84}
{"monomer.sequence": "TQKRLAASVVGVGKRKV [RPL19A]", "measured.result": 1.33}
{"monomer.sequence": "EAVEIPVNSADGKEDVE [SME1]", "measured.result": 2.29}
{"monomer.sequence": "AKSTVETFISSMTATAD [RIP1]", "measured.result": 1.89}
{"monomer.sequence": "LLCALDRKDQDDRDHFG [RPB2]", "measured.result": 3.22}

----------
assay: protein stability index of a GFP-peptide fusion (yeast GPS) (PSI 1-4); higher = more stable; sorted into four equal gates, so the index is relative within each strain; conditions: doa10∆
endpoint: protein stability index

{"monomer.sequence": "ANLPWLGKAQNWAKFTA [RPN2]", "measured.result": 3.34}
{"monomer.sequence": "TAAEKKERLTKEAAAIA [RPL8B]", "measured.result": 2.15}
{"monomer.sequence": "NLKQANNVAYGKKRFRV [SMC4]", "measured.result": 2.41}
{"monomer.sequence": "ESQEKYMEPFDLDLNEQ [NSL1]", "measured.result": 3.29}
{"monomer.sequence": "LRGSLLSRKPSDNKKRS [RPC82]", "measured.result": 2.96}
{"monomer.sequence": "TGGQTIDNGTGRTGNGN [MED6]", "measured.result": 3.06}
{"monomer.sequence": "ISSSAIPYSRNAPAWFK [RPS13]", "measured.result": 2.33}
{"monomer.sequence": "FKATHILDFGPGGASGL [FAS1]", "measured.result": 2.75}
{"monomer.sequence": "LDGDRADKRGVLTGGYL [SMC3]", "measured.result": 2.93}
{"monomer.sequence": "GSKKGQEGKISSVYRLK [RPL26A]", "measured.result": 3.15}
{"monomer.sequence": "LSVVKYLLASLKDSKDF [RPN9]", "measured.result": 2.19}
{"monomer.sequence": "NSQERVQDLGSAISVTN [SIR2]", "measured.result": 2.45}
{"monomer.sequence": "VESQFSAGRLYACISSR [RPS8A]", "measured.result": 2.08}
{"monomer.sequence": "SEHVFDYFFYFLVLYDV [NUT1]", "measured.result": 2.12}
{"monomer.sequence": "IHSMNENPTPEKGNAKM [SIR3]", "measured.result": 2.94}

----------
assay: protein stability index of a GFP-peptide fusion (yeast GPS) (PSI 1-4); higher = more stable; sorted into four equal gates, so the index is relative within each strain; conditions: doa10∆
Give 1 (yes) when the value for protein stability index is at least 3. Give 0 (no) when it is less.

{"monomer.sequence": "NTTQDNGGDKELEMIGG [YCS4]", "assigned.category": "1 (yes)"}
{"monomer.sequence": "ISKRKEELEEEFRKKLK [YIL149C/MLP2]", "assigned.category": "1 (yes)"}
{"monomer.sequence": "EDDESLGHKELKVRKGH [RPB2]", "assigned.category": "0 (no)"}
{"monomer.sequence": "YVQVRQPIFVAHTAGRY [RPS5]", "assigned.category": "0 (no)"}
{"monomer.sequence": "NNHNDSNRLHPPDIHPN [GRR1]", "assigned.category": "0 (no)"}
{"monomer.sequence": "MEGDDLFDEFGNLIGVD [SNU114]", "assigned.category": "1 (yes)"}
{"monomer.sequence": "LLSENRSEKSTTNAQTK [SRP54]", "assigned.category": "0 (no)"}
{"monomer.sequence": "AKIYPGRGTLFVRGDSK [RPL24A]", "assigned.category": "0 (no)"}
{"monomer.sequence": "HFSKDDYSPESKGFVEN [RPO21]", "assigned.category": "0 (no)"}
{"monomer.sequence": "QVLNRYTYSSTLSHLRR [RPB2]", "assigned.category": "0 (no)"}
{"monomer.sequence": "SSSPLAMSETLSKVSLL [PRE8]", "assigned.category": "0 (no)"}
{"monomer.sequence": "IMKFQSLSDNDLAVCAT [ECM29]", "assigned.category": "0 (no)"}
{"monomer.sequence": "EQHEEKAAEGEEKEEEN [QCR6]", "assigned.category": "1 (yes)"}
{"monomer.sequence": "IAVLIELLEERFQDSNP [YCS4]", "assigned.category": "0 (no)"}
{"monomer.sequence": "KKMDDYIHRIGRTGRAA [PRP28]", "assigned.category": "1 (yes)"}
{"monomer.sequence": "PEESKGSFKYITARSAF [SWP82]", "assigned.category": "0 (no)"}
{"monomer.sequence": "YDEVKKHWGGGILGNKA [RPL8A]", "assigned.category": "1 (yes)"}
{"monomer.sequence": "NYDTCGGESAYFFQLQI [RPC11]", "assigned.category": "0 (no)"}
{"monomer.sequence": "LTCSLYELYINKLTILG [IRR1]", "assigned.category": "0 (no)"}
{"monomer.sequence": "EPVKEYTFKTSMRVKPS [YMR129W/POM152]", "assigned.category": "1 (yes)"}
{"monomer.sequence": "MGKSHGYRSRTRYMFQR [RPL21A]", "assigned.category": "1 (yes)"}
{"monomer.sequence": "HMATALQIAQLTLKHRQ [RPN10]", "assigned.category": "0 (no)"}
{"monomer.sequence": "LVLDLLTWLSSFSVCKI [IRR1]", "assigned.category": "0 (no)"}
{"monomer.sequence": "LKWSACTSLMDIIVAIK [IRR1]", "assigned.category": "0 (no)"}
{"monomer.sequence": "MARGPKKHLKRLAAPHH [RPS4A]", "assigned.category": "0 (no)"}
{"monomer.sequence": "YITLKATFLKDDLPYYV [QCR2]", "assigned.category": "0 (no)"}
{"monomer.sequence": "PQMQCALQNLSQLPITP [YGL172W/NUP49]", "assigned.category": "0 (no)"}
{"monomer.sequence": "DCLDKLLNDECTESTRE [SNF2]", "assigned.category": "1 (yes)"}
